Recorded Vd, one value per entry.
- METHOD DESCRIPTION: Pharmacokinetics after intravenous and oral administration in rats
- Type: in vivo
- CONDITION LABEL: rat, plasma, iv dosing, dose 1 mg/kg (Ex. 27: 0.72 mg/kg), read-out: Vss
Quick reminder: number only, in L/kg, skip the unit.

Worked examples, 3 molecules total:
MOLECULE	UNITS TEXT	VALUE OBSERVED
Cn1nc(C2CC2)cc1Nc1ncc(Cl)c(NC2CC3CN(C(=O)CC#N)CC3C2)n1 (stereo not shown)	L/kg	0.95
Cn1cc(Nc2ncc(Cl)c(NC3CC4CNCC4C3)n2)cn1 (stereo not shown)	L/kg	18.6
CN(c1nc(Nc2cnn(C)c2)ncc1Cl)C1CCC2(CC1)CCN(C(=O)CC#N)C2 (single isomer, unassigned)	L/kg	1.38

Reported Vd for Cc1cnc(Nc2cnn(C)c2)nc1NC1CC2CN(S(C)(=O)=O)CC2C1 (stereo not shown) was 5.43

Numbers sourced from patent US9403801B2.
